Molecular target: KRAS WT-cRAF (Homo sapiens, UniProt P01116+P62937)
Sequence (P01116 1-188 isoform P01116-2): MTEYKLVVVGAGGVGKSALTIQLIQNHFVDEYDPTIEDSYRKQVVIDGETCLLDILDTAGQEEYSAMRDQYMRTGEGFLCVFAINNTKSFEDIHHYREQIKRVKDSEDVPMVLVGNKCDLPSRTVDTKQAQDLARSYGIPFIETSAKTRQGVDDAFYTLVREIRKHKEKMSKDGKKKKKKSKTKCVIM
Sequence (P62937 whole entry): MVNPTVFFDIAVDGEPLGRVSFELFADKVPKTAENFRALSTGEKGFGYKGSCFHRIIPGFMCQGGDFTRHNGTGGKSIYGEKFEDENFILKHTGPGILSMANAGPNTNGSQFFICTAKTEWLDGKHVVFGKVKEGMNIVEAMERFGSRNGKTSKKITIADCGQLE
Experiment: Assay for binding of KRAS to cRAF (HTRF, with Cyclophilin A), KRAS WT
Conditions: read-out: KRAS WT-cRAF binding assay, GPPNP-KRAS WT, IC50 values
ATTRIBUTE_MEASURED: IC50 (nM)
Provide the reading as a plain figure in nM.

CCn1c(-c2cc(C#CCN3CCN(C(=O)CO)CC3)cnc2[C@H](C)OC)c2c3cc(ccc31)-c1csc(n1)C[C@H](NC(=O)[C@H]1[C@@H]3COC[C@@H]31)C(=O)N1CCC[C@H](N1)C(=O)OCC(C)(C)C2 (atropisomer, axis not shown; (Ra)) = 25.3
CCn1c(-c2cc(C#CCN3CCC(C#N)(CN)CC3)cnc2[C@H](C)OC)c2c3cc(ccc31)-c1csc(n1)C[C@H](NC(=O)[C@H]1[C@H](C)[C@@H]1C)C(=O)N1CCC[C@H](N1)C(=O)OCC(C)(C)C2 (atropisomer, axis not shown; (Ra)) = 36.4
CCn1c(-c2cc(C#CCN3CCC(C#N)(CN)CC3)c[n+]([O-])c2[C@H](C)OC)c2c3cc(ccc31)-c1csc(n1)C[C@H](NC(=O)[C@H]1[C@H](C)[C@@H]1C)C(=O)N1CCC[C@H](N1)C(=O)OCC(C)(C)C2 (atropisomer, axis not shown; (Ra)) = 38.8
CCn1c(-c2cc(C#CCN3CCC(C#N)(CN)CC3)cnc2[C@H](C)OC)c2c3cc(ccc31)-c1csc(n1)C[C@H](NC(=O)[C@H]1[C@@H]3COC[C@@H]31)C(=O)N1CCC[C@H](N1)C(=O)OCC(C)(C)C2 (atropisomer, axis not shown; (Ra)) = 16.5
CCn1c(-c2cc(C#CCN3CCC(C#N)CC3)cnc2[C@H](C)NC)c2c3cc(ccc31)-c1csc(n1)C[C@H](NC(=O)[C@H]1[C@@H]3COC[C@@H]31)C(=O)N1CCC[C@H](N1)C(=O)OCC(C)(C)C2 (atropisomer, axis not shown; (Ra)) = 58.2

Data request, read-out IC50, for CCn1c(-c2cc(C#CCN3CCC(C#N)CC3)cnc2[C@H](C)OC)c2c3cc(ccc31)-c1csc(n1)C[C@H](NC(=O)[C@H]1[C@H](C)[C@@H]1C)C(=O)N1CCC[C@H](N1)C(=O)OCC(C)(C)C2 (atropisomer, axis not shown; (Ra))
14.8

Data request, read-out IC50, for CCn1c(-c2cc(C#CCN3CCC(C#N)(CN)CC3)c[n+]([O-])c2[C@H](C)OC)c2c3cc(ccc31)-c1csc(n1)C[C@H](NC(=O)[C@H]1[C@@H]3COC[C@@H]31)C(=O)N1CCC[C@H](N1)C(=O)OCC(C)(C)C2 (atropisomer, axis not shown; (Ra))
31.2

---

Test system: AsPC-1 p-ERK
Assay: Cell p-ERK assay (HTRF), AsPC-1 cells
Type: cell-based, human
Conditions: Homo sapiens, ASPC1, 3 h, read-out: AsPC-1 p-ERK IC50(nM)
Lab note: anything with IC50 below 0.6 nM is marked YES; values at 0.6 nM or higher are marked NO.

Example cases with answers are listed next.
CCn1c(-c2cc(C#CCN3CCS(=N)(=O)CC3)cnc2[C@H](C)OC)c2c3cc(ccc31)-c1csc(n1)C[C@H](NC(=O)[C@H]1[C@@H]3COC[C@@H]31)C(=O)N1CCC[C@H](N1)C(=O)OCC(C)(C)C2 (atropisomer, axis not shown; (Ra)) = YES
CCn1c(-c2cc(C#CCN3CCS(=O)(=O)CC3)cnc2[C@H](C)OC)c2c3cc(ccc31)-c1csc(n1)C[C@H](NC(=O)[C@@H](NC)C1CCC1)C(=O)N1CCC[C@H](N1)C(=O)OCC(C)(C)C2 (atropisomer, axis not shown; (Ra)) = YES
CCn1c(-c2cc(C#CCN3CCS(=O)(=O)CC3)cnc2[C@H](C)OC)c2c3cc(ccc31)-c1csc(n1)C[C@H](Nc1n[nH]c3cc(C)ccc13)C(=O)N1CCC[C@H](N1)C(=O)OCC(C)(C)C2 (atropisomer, axis not shown; (Ra)) = NO
CCn1c(-c2cc(C#CCN3CCS(=O)(=O)CC3)cnc2[C@H](C)OC)c2c3cc(ccc31)-c1csc(n1)C[C@H](NC(=O)[C@H]1[C@H](C)[C@@H]1CO)C(=O)N1CCC[C@H](N1)C(=O)OCC(C)(C)C2 (atropisomer, axis not shown; (Ra)) = YES

Quick check: IC50 of CCn1c(-c2cc(C#CCN3CCS(=O)(=O)CC3)cnc2[C@H](C)OC)c2c3cc(ccc31)-c1csc(n1)C[C@H](NC(=O)[C@@H](N)C1CCC1)C(=O)N1CCC[C@H](N1)C(=O)OCC(C)(C)C2 (atropisomer, axis not shown; (Ra)) under 0.6 nM?
NO

Quick check: IC50 of CCn1c(-c2cc(C#CCN3CCN(C(=O)CN)CC3)cnc2[C@H](C)OC)c2c3cc(ccc31)-c1csc(n1)[C@@H](OCCN(C)C)[C@H](NC(=O)[C@H]1[C@H](C)[C@@H]1C)C(=O)N1CCC[C@H](N1)C(=O)OCC(C)(C)C2 (atropisomer, axis not shown; (Ra)) under 0.6 nM?
NO
